Biological target: human mGlu2 receptor (Homo sapiens)
Sequence (Q14416 19-872): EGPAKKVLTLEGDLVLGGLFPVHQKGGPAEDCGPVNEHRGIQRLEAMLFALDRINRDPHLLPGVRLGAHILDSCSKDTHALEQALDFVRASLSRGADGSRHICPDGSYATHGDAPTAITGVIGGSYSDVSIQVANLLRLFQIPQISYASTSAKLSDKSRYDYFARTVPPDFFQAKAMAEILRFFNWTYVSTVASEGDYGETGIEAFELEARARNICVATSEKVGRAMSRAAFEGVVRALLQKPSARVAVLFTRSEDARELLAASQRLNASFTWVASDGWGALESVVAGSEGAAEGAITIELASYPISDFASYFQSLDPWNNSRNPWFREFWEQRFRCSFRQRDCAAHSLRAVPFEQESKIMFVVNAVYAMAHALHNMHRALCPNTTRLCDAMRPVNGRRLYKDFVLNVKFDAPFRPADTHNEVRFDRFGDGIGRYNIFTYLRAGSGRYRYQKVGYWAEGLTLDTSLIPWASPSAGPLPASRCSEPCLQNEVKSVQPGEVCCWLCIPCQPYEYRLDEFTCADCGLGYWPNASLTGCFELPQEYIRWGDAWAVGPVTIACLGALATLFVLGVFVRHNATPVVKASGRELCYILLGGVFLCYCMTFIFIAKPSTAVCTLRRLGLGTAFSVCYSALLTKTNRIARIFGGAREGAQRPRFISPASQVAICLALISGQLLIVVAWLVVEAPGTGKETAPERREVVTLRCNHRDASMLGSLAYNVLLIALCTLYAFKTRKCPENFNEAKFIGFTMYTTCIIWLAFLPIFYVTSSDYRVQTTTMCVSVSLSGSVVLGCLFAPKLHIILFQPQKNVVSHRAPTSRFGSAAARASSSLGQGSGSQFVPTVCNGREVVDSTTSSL
Assay: [35S]GTPγS binding assay, mGluR2 negative allosteric modulation (membranes from CHO cells transfected with human mGlu2 receptor, glutamate ~EC80 60 μM);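 also: membranes preincubated 30 min at 30 °C with compound plus glutamate, then [35S]GTPγS (0.1 nM) incorporation measured over another 30 min at 30 °C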
Settings: read-out: GTPγS - hmGluR2 anGT Emax, relative maximal effect: maximal % inhibition relative to the control glutamate response
MEASURED_QUANTITY: Emax (%)
One number for each entry, in %.

Examples with answers:
C[C@H]1CN(c2ccc(C(F)(F)F)cc2)C(=O)c2c(C(=O)Nc3cnccc3CO)cnn21 = 103
C[C@H]1CN(c2ccc(C(F)(F)F)cc2)C(=O)c2c(C(=O)NCC3CCCC3)cnn21 = 103
Cc1ncccc1NC(=O)c1cnn2c1C(=O)N(c1ccc(C(F)(F)F)cc1)C[C@@H]2C = 113

Please give Emax, item by item, for the list that follows.
1. C[C@H]1CN(c2ccc(C(F)(F)F)cc2)C(=O)c2c(C(=O)Nc3ccc(F)cn3)cnn21
2. Cc1cc(NC(=O)c2cnn3c2C(=O)N(c2ccc(C(F)(F)F)c(Cl)c2)C[C@@H]3C)on1

Found:
[108, 106]

Please give Emax, item by item, for the list that follows.
1. COCc1cc(N2C[C@H](C)n3ncc(C(=O)Nc4ccnc(C)c4)c3C2=O)ccc1C(F)(F)F
2. C[C@H]1CN(c2ccc(C(F)(F)F)cc2)C(=O)c2c(C(=O)NC(=O)C3CCC3)cnn21

Found:
112
107
